- Experimental System: Sentrin-specific protease 7 (Homo sapiens) (UniProt Q9BQF6)
- Protocol Details: SENP7 protease inhibitors, primary screen, biochemical, luminescence, uHTS (AID 434973);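 further: plate controls were DMSO with enzyme for no effect and no enzyme buffer wells for full effect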
- Condition Details: recombinant SENP7, Z-RLRGG-aminoluciferin luminescence, 40 min; at 5 µM
Screen size: about 330,000 compounds; about 4,900 (1.5%) were called active.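 How the source made its calls: active means inhibition above about 50% at the single test dose (limit read from the data); inactive means the rest.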 What follows is part of a selection rich in actives, with near analogues and random picks from the rest.
Respond using exactly one of the listed classes: active, inactive

Prompt: Just curious, what result did "CCC1(CC)NC(=O)N(CC(=O)OCC(=O)Nc2ccc(C(F)(F)F)cc2)C1=O" get here?
Response: inactive

Prompt: Just curious, what result did "Cc1cnc(C(=O)OCC(=O)N2CCc3ccccc32)cn1" get here?
Response: inactive

Prompt: Just curious, what result did COCCCNC(=O)[C@H]1N2C(=O)c3ccccc3C2SC1(C)C (stereo partly drawn) get here?
Response: inactive

Prompt: Just curious, what result did "Cc1noc(C)c1S(=O)(=O)N(C)C[C@H]1Oc2ccc(NC(=O)C3CC3)cc2C(=O)N([C@H](C)CO)C[C@@H]1C" get here?
Response: inactive

Prompt: Just curious, what result did "COc1cc(/C=N/NC(=O)CCc2n[nH]c(=O)[nH]c2=O)ccc1O" get here?
Response: inactive

Prompt: Just curious, what result did "COc1ccc(N=C(C)c2sc3ccccc3c2O)cc1" get here?
Response: active

Prompt: Just curious, what result did "O=C(Nc1ccccc1)c1ccc2c(c1)OCCCO2" get here?
Response: active

Prompt: Just curious, what result did "O=C(c1cnn(-c2ccc(Cl)cc2)c1)c1ccccc1O" get here?
Response: active

Prompt: Just curious, what result did "CCOC(=O)c1cnc(COc2ccccc2Cl)[nH]c1=O" get here?
Response: inactive

Prompt: Just curious, what result did "O=C(CN1C(=O)NC2(CCCCCC2)C1=O)NCc1cccs1" get here?
Response: inactive

Prompt: Just curious, what result did "CC(C)C(=O)Nc1cccc(C(=O)Nc2ccc3c(c2)OCO3)c1" get here?
Response: inactive

Prompt: Just curious, what result did "COC(=O)c1ccc(/C=C/c2c(-c3ccc(OC)cc3)sc3ccccc23)cc1" get here?
Response: inactive

Prompt: Just curious, what result did "CN(Cc1c(F)cccc1Cl)C(=O)CNC(=O)c1ccc2c(c1)OCO2" get here?
Response: inactive

Prompt: Just curious, what result did "COc1ccc(-c2sc3ccccc3c2-c2ccc(OCCN3CCOCC3)cc2)cc1" get here?
Response: inactive

Prompt: Just curious, what result did "O=C(Nc1ccccc1F)c1ccc2c(c1)OCO2" get here?
Response: active

Prompt: Just curious, what result did "COc1ccc(C(=O)N2CCN(c3ncccn3)CC2)cc1S(=O)(=O)N1CCOCC1" get here?
Response: inactive

Prompt: Just curious, what result did "N#C/C(C(=S)Nc1ccccc1)=C1/NN=C(N2CCOCC2)N1c1ccccc1" get here?
Response: inactive

Prompt: Just curious, what result did "COC(=O)c1ccc(COc2ccc(C#N)cc2)o1" get here?
Response: inactive

Prompt: Just curious, what result did "CCOC(=O)N1CCC(NC(=O)c2cnn3ccccc23)CC1" get here?
Response: inactive

Prompt: Just curious, what result did "CCOC(=O)c1cnc2[nH]c3ccccc3n2c1=O" get here?
Response: active

Prompt: Just curious, what result did CC(OC(=O)c1ccc(Cl)cc1O)C(=O)NCCC1=CCCCC1 (stereo not drawn) get here?
Response: inactive

Prompt: Just curious, what result did OC(CNC1CCCC1)COc1ccc(F)cc1 (stereo not drawn) get here?
Response: inactive

Prompt: Just curious, what result did "COc1cc(/C=N/Nc2nc3ccccc3s2)ccc1O" get here?
Response: active

====

- Experimental System: Sentrin-specific protease 7 (Homo sapiens) (UniProt Q9BQF6)
- Protocol Details: SENP7 protease inhibitors, primary screen, biochemical, luminescence, uHTS (AID 434973);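 further: plate controls were DMSO with enzyme for no effect and no enzyme buffer wells for full effect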
- Condition Details: recombinant SENP7, Z-RLRGG-aminoluciferin luminescence, 40 min; at 5 µM; stronger effect = higher value
In all, about 330,000 compounds went through this assay and about 4,900 (1.5%) were called active. The list comes from a sample in which actives are over-represented; it also holds close analogues and randomly drawn compounds.
Measurement Label: inhibition (%)
Could you give me the number in %? Just the number is fine.

Prompt: Give the value of inhibition reported for the following: "Cc1ccc(NC(=O)CN(C)CC(=O)Nc2cccc(F)c2)cc1[N+](=O)[O-]"
Response: -3.97

Prompt: Give the value of inhibition reported for the following: "CC(C)COC(=O)n1c(=O)oc2ccc(S(=O)(=O)N3CCCCC3)cc21"
Response: -5.94

Prompt: Give the value of inhibition reported for the following: "C/C(CC(=O)N1CCN(C=O)CC1)=N\NC(=O)c1ccc(Br)cc1"
Response: 4.47

Prompt: Give the value of inhibition reported for the following: "O=C(N/N=C/c1ccc([N+](=O)[O-])cc1)C(=O)N1CCCC1"
Response: -3.45

Prompt: Give the value of inhibition reported for the following: "COc1ccc(S(=O)(=O)N2CCN(C(=O)c3cc(C)oc3C)CC2)cc1"
Response: 3.33

Prompt: Give the value of inhibition reported for the following: "Cc1cc(O)c(NC(=O)c2ccc(C)c([N+](=O)[O-])c2)cc1C"
Response: -7.98

Prompt: Give the value of inhibition reported for the following: "CC(=O)c1ccc(NC(=O)c2ccc3c(Cl)c4c(nc3c2)CCCC4)cc1"
Response: -3.44

Prompt: Give the value of inhibition reported for the following: "COC(CNC(=O)c1ccc2c(c1)ncn2-c1cc(C)cc(C)c1)OC"
Response: -3.05

Prompt: Give the value of inhibition reported for the following: "Cc1ccsc1C(=O)N/N=C/c1ccc([N+](=O)[O-])cc1"
Response: 80.9

Prompt: Give the value of inhibition reported for the following: "CC(C)CCNC(=O)c1ccc2c(Cl)c3c(nc2c1)CCC3"
Response: 84.1

====

- Experimental System: Sentrin-specific protease 7 (Homo sapiens)
- Protocol Details: SENP7 protease inhibitors, primary screen, biochemical, luminescence, uHTS (AID 434973);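 further: plate controls were DMSO with enzyme for no effect and no enzyme buffer wells for full effect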
- Condition Details: recombinant SENP7, Z-RLRGG-aminoluciferin luminescence, 40 min; at 5 µM; stronger effect = higher value
The whole screen tested about 330,000 compounds, of which about 4,900 (1.5%) were called active. What follows is part of a selection rich in actives, with near analogues and random picks from the rest.
Measurement Label: inhibition (%)
Could you give me the number in %? Just the number is fine.

Prompt: Give the value of inhibition reported for the following: "C/C(=N\Nc1nncc2ccccc12)c1ccc(Cl)c([N+](=O)[O-])c1"
Response: 5.32

Prompt: Give the value of inhibition reported for the following: O=C(CN1C(=O)NC2(CCCC2)C1=O)NCC1CCCO1 (stereo unspecified)
Response: 4.93

Prompt: Give the value of inhibition reported for the following: CNC(=O)c1c(NC(NC(=O)c2ccco2)C(=O)c2ccc(Cl)cc2)sc2c1CCCC2 (stereo unspecified)
Response: 3.25

Prompt: Give the value of inhibition reported for the following: "O=C(Nc1ccc(S(=O)(=O)N2CCCCC2)cc1)C1CCN(C(=O)c2ccc(F)cc2)CC1"
Response: -13.9

Prompt: Give the value of inhibition reported for the following: "CCOC(=O)CCP(=O)(O)C(O)(c1ccccc1)c1ccccc1"
Response: -5.54

Prompt: Give the value of inhibition reported for the following: "COc1cccc(/C=N\Nc2nncc(-c3ccccc3)n2)c1"
Response: 24.7

====

Assignment: determine reported inhibition for the given molecules.
- Experimental System: Sentrin-specific protease 7 (Homo sapiens)
- Protocol Details: SENP7 protease inhibitors, primary screen, biochemical, luminescence, uHTS (AID 434973);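 further: plate controls were DMSO with enzyme for no effect and no enzyme buffer wells for full effect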
- Condition Details: recombinant SENP7, Z-RLRGG-aminoluciferin luminescence, 40 min; at 5 µM; stronger effect = higher value
The whole screen tested about 330,000 compounds, of which about 4,900 (1.5%) were called active. This excerpt belongs to a sample that is enriched for actives.
Could you give me the number in %? Just the number is fine.

Prompt: Give the value of inhibition reported for the following: "O=C(Cc1ccc(S(=O)(=O)N2CCOCC2)s1)N1CCN(c2ccc(C(F)(F)F)cc2[N+](=O)[O-])CC1"
Response: -8

Prompt: Give the value of inhibition reported for the following: "CCC(=O)NC(Nc1cc(C)ccn1)(C(F)(F)F)C(F)(F)F"
Response: 98.5

Prompt: Give the value of inhibition reported for the following: O=[N+]([O-])c1ccc(N/N=C2/CCCCC2c2ccccn2)c([N+](=O)[O-])c1 (stereo unspecified)
Response: -1.83

Prompt: Give the value of inhibition reported for the following: "CCOC(=O)c1cc(S(=O)(=O)NCCc2ccc(OC)c(OC)c2)cn1C"
Response: 7.17

Prompt: Give the value of inhibition reported for the following: "Cc1cccc(NC(=O)Nc2ccc3c(c2)OCO3)n1"
Response: 17

Prompt: Give the value of inhibition reported for the following: "COc1ccc(/C=C2\CCc3ccccc3C2=O)c(OC)c1OC"
Response: -0.625

Prompt: Give the value of inhibition reported for the following: "O=C(CN1C(=O)c2ccc([N+](=O)[O-])cc2C1=O)Nc1nnc(C2CC2)s1"
Response: -1.7

Prompt: Give the value of inhibition reported for the following: "CCOC(=O)NNc1cc(C(F)(F)F)ccn1"
Response: 13.9

Prompt: Give the value of inhibition reported for the following: "Cc1ccnc(NC(=O)CCCOc2ccccc2)c1"
Response: -12.2

Prompt: Give the value of inhibition reported for the following: CC(C)C1C2=C(CC(C)(C)CC2=O)ON1c1ccccc1 (stereo unspecified)
Response: 3.53

Prompt: Give the value of inhibition reported for the following: "Cc1c(Br)c([N+](=O)[O-])nn1CC(=O)N1CCN(Cc2ccccc2)CC1"
Response: -3.11

Prompt: Give the value of inhibition reported for the following: "O=C(/C=C/c1ccc2c(c1)OCO2)NCc1ccc(F)cc1"
Response: -2.53

Prompt: Give the value of inhibition reported for the following: "C[C@@H](NC(=O)OC(C)(C)C)c1nnc(S(=O)(=O)Cc2ccccc2)o1"
Response: -2.96

Prompt: Give the value of inhibition reported for the following: "CCNc1nc(N)nc(Oc2ccc(OCC)nn2)n1"
Response: 73.1

Prompt: Give the value of inhibition reported for the following: "O=C(CSC(=S)N1CCOCC1)c1ccccc1"
Response: 62.7

Prompt: Give the value of inhibition reported for the following: "O=[N+]([O-])c1ccc2c(c1)Nc1nc3ccccc3nc1N2"
Response: -3.53

Prompt: Give the value of inhibition reported for the following: CCNC(=O)CC1C(=O)N(c2ccc(F)cc2)C(=O)N1CCc1sccc1C (stereo unspecified)
Response: 7.13

Prompt: Give the value of inhibition reported for the following: "CCOc1ccc(S(=O)(=O)Nc2nc3cc(OC)ccc3s2)cc1"
Response: 6.2

Prompt: Give the value of inhibition reported for the following: CC(Oc1ccc(Br)cc1Br)C(=O)NC1CCCC1 (stereo unspecified)
Response: 4.39

Prompt: Give the value of inhibition reported for the following: "Cc1cccc(NC(=O)/C=C/c2ccc3c(c2)OCO3)n1"
Response: 78

Prompt: Give the value of inhibition reported for the following: "CSc1ccc(/C=N/NC(=O)c2cccc(Cl)c2)cc1"
Response: 96

Prompt: Give the value of inhibition reported for the following: "COc1ccc(NC(=O)NCc2ccc3c(c2)OCO3)c(OC)c1"
Response: 6.56

Prompt: Give the value of inhibition reported for the following: "CSc1ccc(/C=N\NC(=O)CC(=O)NC(C)C)cc1"
Response: 4.98

Prompt: Give the value of inhibition reported for the following: "CC(C)(C)c1cc[n+](-c2[nH]c(=O)sc2/C=N/N=C(\[O-])c2ccccc2)cc1"
Response: 1.22

Prompt: Give the value of inhibition reported for the following: "CCc1ccccc1OCC(=O)Nc1ccc(C)c(S(=O)(=O)N2CCCCCC2)c1"
Response: 1.37

Prompt: Give the value of inhibition reported for the following: CC(C)(C)NS(=O)(=O)c1ccc(NC(=O)C2CCCO2)cc1 (stereo unspecified)
Response: 3.51

Prompt: Give the value of inhibition reported for the following: CC(Oc1ccc(F)cc1F)C(=O)/C=C/N(C)C (stereo unspecified)
Response: 11.5

Prompt: Give the value of inhibition reported for the following: "O=C(NCCC(=O)N1O[C@@H]2C=C[C@H]1C2)OCC1c2ccccc2-c2ccccc21"
Response: 3.86

Prompt: Give the value of inhibition reported for the following: "CCNc1nc(N)nc(-c2cc(Cl)ccc2OC)n1"
Response: 3.35

Prompt: Give the value of inhibition reported for the following: "Cc1ccc(CN2CCN(c3ncccn3)CC2)c(C)c1"
Response: -3.53

Prompt: Give the value of inhibition reported for the following: "O=C1c2ccccc2C(=O)N1CCC#Cc1ccc2cc(C3(O)CCCCC3)oc(=O)c2c1"
Response: 2.91

Prompt: Give the value of inhibition reported for the following: "CCOc1ccc(Oc2nc(C)cc(OC)n2)nn1"
Response: -1.32

Prompt: Give the value of inhibition reported for the following: "Cc1cc2oc(=O)cc(CN3CCN(S(=O)(=O)c4cccs4)CC3)c2cc1C(C)C"
Response: 8.53

Prompt: Give the value of inhibition reported for the following: "COc1ccc2nc(NC(=O)[C@@H]3CCCN3C(=O)c3cccs3)sc2c1"
Response: -10

Prompt: Give the value of inhibition reported for the following: "O=c1[nH]c(CCl)nc2cc(-c3ccc(Cl)cc3)sc12"
Response: 63.1

Prompt: Give the value of inhibition reported for the following: "COc1cc(/C=C2\Oc3ccc(C#Cc4ccc(O)cc4)cc3C2=O)cc(OC)c1"
Response: -7.29

Prompt: Give the value of inhibition reported for the following: "NC(=O)Cc1nc2scc(-c3ccc(Cl)cc3)c2c(=O)[nH]1"
Response: -2.34

Prompt: Give the value of inhibition reported for the following: "O=C(Oc1ccc(C(=S)N2CCOCC2)cc1)c1ccc(F)cc1"
Response: 2.03

Prompt: Give the value of inhibition reported for the following: "Cc1c(Cl)cccc1NC(=O)NCCCN1CCCC1=O"
Response: -2.59

Prompt: Give the value of inhibition reported for the following: "Nc1nc(C23CC4CC(CC(C4)C2)C3)cs1"
Response: 3.32

Prompt: Give the value of inhibition reported for the following: O=C(CC(NCCN1CCOCC1)C(=O)O)Nc1cccc(Cl)c1 (stereo unspecified)
Response: 2.14

Prompt: Give the value of inhibition reported for the following: CCC1C/C(=C/c2cccs2)C(=O)/C(=C/c2cccs2)C1 (stereo unspecified)
Response: 1.12

Prompt: Give the value of inhibition reported for the following: "Cc1nc2ccccc2c(=O)n1-c1ccc(NS(=O)(=O)c2ccc(F)cc2F)cc1"
Response: -0.987

Prompt: Give the value of inhibition reported for the following: "O=C(CSC(=S)N1CCOCC1)c1cc(Br)cc(Br)c1O"
Response: 1.34

Prompt: Give the value of inhibition reported for the following: "Nc1c(C(=O)c2cccs2)sc2nsc(SCCN3CCCCC3)c12"
Response: 9.3

Prompt: Give the value of inhibition reported for the following: "O=C(Nc1ccc(Cl)cc1)Nc1ccc(C(=O)N2CCOCC2)cc1"
Response: 11.1
